# Test system: HSD17B13 (Homo sapiens (Human))
# Assay summary: HSD17B13 enzymatic inhibition assay (150 nM or 50 nM HSD17B13)
# Format: biochemical
# Applied conditions: 50 nM HSD17B13; read-out: Inhibition of 50 nM of HSD17B13 IC50
Parameter pIC50: see the listing below.
// pIC50 here means minus log10 of the molar concentration (mol/L)

Observe how each entry below is paired with its result.
Cc1ccc2c(c1)S(=O)(=O)c1cc(C)ccc1C2NC(=O)c1cc(NC2CCCCC2)c(C(F)(F)F)[nH]c1=O: 7.70
N#Cc1ccc2c(c1)Oc1ccccc1C2NC(=O)c1ccc(C(F)(F)F)[nH]c1=O (centres unmarked): 7.05
CCCC1CC(NC(=O)c2ccc(C(F)(F)F)[nH]c2=O)c2cc(C)ccc2O1 (centres unmarked): 6.96
Cc1ccc2c(c1)N(C)CCC2NC(=O)c1ccc(C(F)(F)F)[nH]c1=O (centres unmarked): 5.37
CC[C@@H]1Oc2cc(C)ccc2[C@@H]1NC(=O)c1ccc(C(F)(F)F)[nH]c1=O: 5.67
Cc1ccc2sc(C)c(NC(=O)c3ccc(C(F)(F)F)[nH]c3=O)c2c1: 6.17
CCCC1CCc2cc(C)ccc2C1NC(=O)c1ccc(C(F)(F)F)[nH]c1=O (centres unmarked): 7.52
Cc1ccc(C(CC2CCOC2)NC(=O)c2ccc(C(F)(F)F)[nH]c2=O)cc1 (centres unmarked): 5.63

# evaluate next
Value of measured pIC50 for the entry CCc1ccc2c(c1)Oc1ccccc1C2NC(=O)c1ccc(C(F)(F)F)[nH]c1=O (centres unmarked) [Compound 162] : 7.10

###

# Assay summary: Microsome stability assay, mouse liver microsomes
# Format: in vitro ADME
# Applied conditions: mouse, mouse liver microsomes, pooled; 1 μM compound, 0.5 mg/mL microsomal protein, NADPH, 37° C.; read-out: Microsome Stability Mouse liver microsomes T½
# Description: Compounds of the disclosure were screened in microsome stability assays. […] A single point for each test condition (n=1) was obtained, and samples were analyzed by LC/MS/MS. Disappearance of the test compound was assessed based on peak area ratios of analyte/IS (no standard curve).
Measurement label: half-life at 1 h, 1 µM (min)
Dear colleague, please return just the value in min, with no unit written.

Value of measured half-life at 1 h, 1 µM for the entry O=C(NC(c1ccccc1)c1ccc(CC(F)(F)F)cc1)c1ccc(C(F)(F)F)[nH]c1=O (centres unmarked) [Compound 12] : 74.5

Value of measured half-life at 1 h, 1 µM for the entry CCCC1CCc2cc(C)ccc2C1NC(=O)c1ccc(C(F)(F)F)[nH]c1=O (centres unmarked) [Compound 285] : 19.6

Value of measured half-life at 1 h, 1 µM for the entry CCC1CCc2cc(C)ccc2C1NC(=O)c1ccc(C(F)(F)F)[nH]c1=O (centres unmarked) [Compound 543] : 31.8

Value of measured half-life at 1 h, 1 µM for the entry COc1ccc2c(c1)CCCC2NC(=O)c1ccc(C(F)(F)F)[nH]c1=O (centres unmarked) [Compound 234] : 4.56

Value of measured half-life at 1 h, 1 µM for the entry COc1ccc2c(c1)Sc1cc(OC)ccc1C2NC(=O)c1ccc(C(F)(F)F)[nH]c1=O [Compound 241] : 103

###

Parameter pIC50: see the listing below.
# Test system: HSD17B13 (Homo sapiens (Human), UniProt Q7Z5P4)
# Sequence (Q7Z5P4 other isoform, or with tags, fused parts or gaps): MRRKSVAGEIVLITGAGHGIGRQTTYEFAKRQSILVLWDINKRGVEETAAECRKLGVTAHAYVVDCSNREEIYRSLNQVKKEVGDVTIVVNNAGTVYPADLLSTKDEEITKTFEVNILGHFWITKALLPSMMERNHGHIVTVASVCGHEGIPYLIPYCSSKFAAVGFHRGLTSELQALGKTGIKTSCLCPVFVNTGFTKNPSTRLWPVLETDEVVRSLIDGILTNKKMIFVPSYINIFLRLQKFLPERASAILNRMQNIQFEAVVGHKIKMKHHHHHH
# Assay summary: HSD17B13 enzymatic inhibition assay (150 nM or 50 nM HSD17B13)
# Assay type: biochemical
# Applied conditions: 50 nM HSD17B13; read-out: Inhibition of 50 nM of HSD17B13 IC50
// pIC50 here means minus log10 of the molar concentration (mol/L)

Let me check: Cc1ccc2c(c1)Oc1ccccc1C2NC(=O)c1ccc(C(F)(F)F)[nH]c1=O (stereo not shown) , system HSD17B13 (Homo sapiens (Human), UniProt Q7Z5P4), measured pIC50 is 6.74

Let me check: CCc1cc(C(=O)NC2c3ccc(C)cc3Oc3cc(C)ccc32)c(=O)[nH]c1C(F)(F)F , system HSD17B13 (Homo sapiens (Human), UniProt Q7Z5P4), measured pIC50 is 7.70

Let me check: Cc1ccc2c(c1)Oc1cc(C)ccc1C2NC(=O)c1cc(Oc2ccccc2)c(C(F)(F)F)[nH]c1=O , system HSD17B13 (Homo sapiens (Human), UniProt Q7Z5P4), measured pIC50 is 7.70

Let me check: C=Cc1ccc2c(c1)C(NC(=O)c1ccc(C(F)(F)F)[nH]c1=O)c1ccccc1S2 (stereo not shown) , system HSD17B13 (Homo sapiens (Human), UniProt Q7Z5P4), measured pIC50 is 6.49

###

# Assay summary: Microsome stability assay, human liver microsomes
# Format: in vitro ADME
# Applied conditions: human, human liver microsomes, pooled; 1 μM compound, 0.5 mg/mL microsomal protein, NADPH, 37° C.; read-out: Microsome Stability Human liver microsomes Cl
Mark label 1 for reported microsomal CLint at 1 h, 1 µM of 200 µL/min/mg or greater; mark label 0 for anything smaller.

Example results:
Cc1ccc2c(c1)-c1cc(C)ccc1C2NC(=O)c1ccc(C(F)(F)F)[nH]c1=O [Compound 43]: label 0
CCCc1ccc(C(NC(=O)c2ccc(C(F)(F)F)[nH]c2=O)c2ccccc2)cc1 (stereo not drawn) [Compound 36]: label 0
O=C(NC(Cc1ccccc1)c1ccc(Cl)cc1)c1ccc(C(F)(F)F)[nH]c1=O (stereo not drawn) [Compound 19A]: label 0
O=C(Nc1cccc2c(O)cccc12)c1ccc(C(F)(F)F)[nH]c1=O [Compound 223]: label 0
Cc1ccc2c(c1)Oc1cc(C)ccc1C2NC(=O)c1cc(OC2CCOCC2)c(C(F)(F)F)[nH]c1=O [Compound 260]: label 0
Cc1ccc(C(CC2CCC2)NC(=O)c2ccc(C(F)(F)F)[nH]c2=O)cc1 (stereo not drawn) [Compound 557]: label 1
Cc1ccc2c(c1)Oc1cccc(Cl)c1C2NC(=O)c1ccc(C(F)(F)F)[nH]c1=O (stereo not drawn) [Compound 190]: label 0
CC[C@@H]1Oc2cc(C)ccc2[C@H]1NC(=O)c1ccc(C(F)(F)F)[nH]c1=O [Compound 360]: label 1

Incoming: Evaluate O=C(NC(c1ccccc1)c1ccc(O)cc1)c1ccc(C(F)(F)F)[nH]c1=O (stereo not drawn) [Compound 19] : microsomal CLint at 1 h, 1 µM at minimum 200 µL/min/mg?
Outgoing: label 0

Incoming: Evaluate CCC[C@@H]1C[C@@H](NC(=O)c2ccc(C(F)(F)F)[nH]c2=O)c2ccc(C)cc2N1 [Compound 369] : microsomal CLint at 1 h, 1 µM at minimum 200 µL/min/mg?
Outgoing: label 0

###

# Test system: UniProt:Q7Z5P4
# Assay summary: HSD17B13 enzymatic inhibition assay (150 nM or 50 nM HSD17B13)
# Format: biochemical
# Applied conditions: 50 nM HSD17B13; read-out: Inhibition of 50 nM of HSD17B13 IC50
Measurement label: IC50
Your reply should be a number followed by the unit it is expressed in.

Cc1ccc2c(c1)Sc1cc(C)ccc1C2NC(=O)c1ccc(C(F)F)[nH]c1=O [Compound 282]: 140 nM
COc1ccc2c(c1)Oc1cc(OC)ccc1C2NC(=O)c1ccc(C(F)(F)F)[nH]c1=O [Compound 56]: 440 nM
COc1ccccc1C(NC(=O)c1ccc(C(F)(F)F)[nH]c1=O)c1ccccc1 (stereo not shown) [Compound 8]: 1610 nM

# evaluate next
Value of measured IC50 for the entry CNc1ccc(C(NC(=O)c2ccc(C(F)(F)F)[nH]c2=O)c2ccc(C)cc2)cc1 (stereo not shown) [Compound 420] : 130 nM

###

Parameter log10 of half-life at 1 h, 1 µM: see the listing below.
# Assay summary: Microsome stability assay, mouse liver microsomes
# Assay type: in vitro ADME
# Applied conditions: mouse, mouse liver microsomes, pooled; 1 μM compound, 0.5 mg/mL microsomal protein, NADPH, 37° C.; read-out: Microsome Stability Mouse liver microsomes T½
A difference of one corresponds to tenfold half-life at 1 h, 1 µM; all values are log10 with half-life at 1 h, 1 µM in h.

Observe how each entry below is paired with its result.
CCC1Cc2cc(OC)ccc2C1NC(=O)c1ccc(C(F)(F)F)[nH]c1=O (centres unmarked) [Compound 295]: 0.26
CCCC1Cc2ccc(C)cc2C1NC(=O)c1ccc(C(F)(F)F)[nH]c1=O (centres unmarked) [Compound 291]: 0.03
O=C(NC1c2ccc(Cl)cc2Oc2cccc(Cl)c21)c1ccc(C(F)(F)F)[nH]c1=O (centres unmarked) [Compound 51]: 0.35
CCC1Cc2cc(C)ccc2C1NC(=O)c1ccc(C(F)(F)F)[nH]c1=O (centres unmarked) [Compound 298]: -0.29
Cc1ccc(C(CC2CC2)NC(=O)c2ccc(C(F)(F)F)[nH]c2=O)cc1 (centres unmarked) [Compound 401]: -0.90

Value of measured log10 of half-life at 1 h, 1 µM for the entry CCC[C@@H]1C[C@H](NC(=O)c2ccc(C(F)(F)F)[nH]c2=O)c2ccc(C)cc2N1 [Compound 368] : 0.10

Value of measured log10 of half-life at 1 h, 1 µM for the entry Cc1ccc2c(c1)Oc1cccc(Cl)c1C2NC(=O)c1ccc(C(F)(F)F)[nH]c1=O (centres unmarked) [Compound 190] : 0.12

Value of measured log10 of half-life at 1 h, 1 µM for the entry Cc1ccc2c(c1)CCCC2NC(=O)c1ccc(C(F)(F)F)[nH]c1=O (centres unmarked) [Compound 235] : -0.01
